The reader will find reported % Activation values listed item by item below.
- target_entity: ΔF508-CFTR (Homo sapiens, UniProt P13569, DEL508-508)
- Construct: host or cells: CFBE41o-, doxycycline-inducible
- Sequence (P13569 with tags, fused parts or gaps DEL508-508): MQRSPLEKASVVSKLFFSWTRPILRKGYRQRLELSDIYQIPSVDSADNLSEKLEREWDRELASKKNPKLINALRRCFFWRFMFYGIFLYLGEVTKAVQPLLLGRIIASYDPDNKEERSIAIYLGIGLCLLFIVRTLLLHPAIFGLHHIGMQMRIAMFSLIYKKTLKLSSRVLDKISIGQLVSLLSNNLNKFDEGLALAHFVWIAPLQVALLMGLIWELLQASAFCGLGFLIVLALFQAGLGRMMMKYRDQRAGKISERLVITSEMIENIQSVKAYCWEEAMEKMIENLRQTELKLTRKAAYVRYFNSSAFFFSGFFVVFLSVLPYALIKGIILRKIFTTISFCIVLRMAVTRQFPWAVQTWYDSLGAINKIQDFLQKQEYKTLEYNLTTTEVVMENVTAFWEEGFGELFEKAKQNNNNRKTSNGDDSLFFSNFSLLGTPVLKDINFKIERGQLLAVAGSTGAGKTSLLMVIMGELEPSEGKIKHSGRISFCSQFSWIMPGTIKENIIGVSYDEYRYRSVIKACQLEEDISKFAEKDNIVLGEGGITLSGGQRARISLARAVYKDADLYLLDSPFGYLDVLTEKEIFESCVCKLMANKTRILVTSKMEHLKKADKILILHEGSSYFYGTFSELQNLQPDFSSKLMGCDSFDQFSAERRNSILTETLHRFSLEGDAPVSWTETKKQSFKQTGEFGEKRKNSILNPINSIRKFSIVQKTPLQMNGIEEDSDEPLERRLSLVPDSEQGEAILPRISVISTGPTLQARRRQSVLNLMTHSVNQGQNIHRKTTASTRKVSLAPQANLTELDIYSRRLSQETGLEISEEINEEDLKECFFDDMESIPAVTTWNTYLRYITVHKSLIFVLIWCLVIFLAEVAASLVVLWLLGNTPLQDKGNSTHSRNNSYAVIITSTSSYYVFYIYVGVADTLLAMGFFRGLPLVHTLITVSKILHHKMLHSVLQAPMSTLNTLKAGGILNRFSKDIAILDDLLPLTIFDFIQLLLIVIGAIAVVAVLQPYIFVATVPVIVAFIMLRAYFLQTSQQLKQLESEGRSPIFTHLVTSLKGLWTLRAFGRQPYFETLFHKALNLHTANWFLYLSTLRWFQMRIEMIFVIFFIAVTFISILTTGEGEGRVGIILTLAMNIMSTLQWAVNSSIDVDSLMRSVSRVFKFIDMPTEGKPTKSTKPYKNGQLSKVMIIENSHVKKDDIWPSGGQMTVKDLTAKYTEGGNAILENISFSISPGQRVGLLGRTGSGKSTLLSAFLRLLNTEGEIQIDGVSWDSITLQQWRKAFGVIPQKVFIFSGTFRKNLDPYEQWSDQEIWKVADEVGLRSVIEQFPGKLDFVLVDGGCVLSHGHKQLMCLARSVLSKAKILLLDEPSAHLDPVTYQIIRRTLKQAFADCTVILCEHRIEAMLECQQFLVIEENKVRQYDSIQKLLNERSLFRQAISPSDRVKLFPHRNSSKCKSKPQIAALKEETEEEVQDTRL
- method_summary: CFTR cell surface levels using HRP-tagged ΔF508-CFTR expressing CFBE cells, intrinsic corrector capacity
- Assay type: cell-based
- measurement_conditions: HRP-tagged ΔF508-CFTR CFBE41o- cells, compounds alone (intrinsic corrector capacity), 20 hours at 33° C.; positive control 3 μM corrector
measurement_kind: % Activation

> print(dat)
                                   molecule                             target.entity  assay.result
1  COC(=O)N1CCN(c2ccc(-c3cc(C(=O)O)nc4c3c(C)nn4-c3ccccc3)cc2)CC1  ΔF508-CFTR (Homo sapiens, UniProt P13569, DEL508-508)        160.8%
2  CC(C)c1nn([C@@H]2CCC[C@@H](O)C2)c2nc(C(=O)O)cc(-c3ccc(N4CCOCC4)cc3)c12 (racemic)  ΔF508-CFTR (Homo sapiens, UniProt P13569, DEL508-508)        86.36%
3  Cc1nn(-c2ccccc2)c2nc(C(=O)O)cc(OCCN3CCCC3)c12  ΔF508-CFTR (Homo sapiens, UniProt P13569, DEL508-508)         19.4%
4  Cc1nn(C2CCCCC2)c2nc(C(=O)O)cc(-c3ccc(N(C)C)nc3)c12  ΔF508-CFTR (Homo sapiens, UniProt P13569, DEL508-508)        80.69%
5  CC(C)c1nn(-c2cccc(N(C)C)c2)c2nc(C(=O)O)cc(-c3cnc(N4CCC(C#N)CC4)nc3)c12  ΔF508-CFTR (Homo sapiens, UniProt P13569, DEL508-508)        356.9%
6  Cc1nn(-c2ccccc2)c2nc(C(=O)O)cc(OCC3(S(C)(=O)=O)CCC3)c12  ΔF508-CFTR (Homo sapiens, UniProt P13569, DEL508-508)       8.1785%
7  CC(=O)N1CCC(n2nc(C(C)C)c3c(-c4ccc(N5CCOCC5)cc4)cc(C(=O)O)nc32)CC1  ΔF508-CFTR (Homo sapiens, UniProt P13569, DEL508-508)        17.23%
8  COC1CCN(c2ccc(-c3cc(C(=O)O)nc4c3c(C(C)C)nn4C3CCCCC3)cn2)C1 (stereo not drawn)  ΔF508-CFTR (Homo sapiens, UniProt P13569, DEL508-508)        189.6%
9  Cc1nn(-c2cccc(N(C)C)c2)c2nc(C(=O)O)cc(-c3ccc(N4CCOCC4)cc3)c12  ΔF508-CFTR (Homo sapiens, UniProt P13569, DEL508-508)        118.9%
